assay-overview: reversal of MRP1-mediated doxorubicin resistance, pilot screen, H69AR cells, doxorubicin co-treatment (AID 601)
cond: H69AR cells, CellTiter-Glo, 72 h; compound alone cytotoxicity; at 10 µM
Catalogue of viability readings, one per entry.
The answer is to be given in %; state only the numeric part.

Worked examples follow.
N#CC1=C(N)Oc2n[nH]c(-c3cccs3)c2C1c1cccs1 (centres undefined) = 83.8
Brc1ccc(-c2csc(/N=C/N3CCOCC3)n2)cc1 = 97.6
CCCC(=O)Nc1nnc(Sc2ccc(N(C)C)cc2)s1 = 101
Cc1ncoc1C(=O)Nc1cccc(Cl)c1C = 101

Input CN(C=C1C(=O)CC(C)(C)CC1=O)CCN1CCNCC1 . Output viability: 96
